- Measurement Target: Integrin alpha-4/beta-1 (Homo sapiens, UniProt P05556+P13612)
- Sequence (P05556 whole entry): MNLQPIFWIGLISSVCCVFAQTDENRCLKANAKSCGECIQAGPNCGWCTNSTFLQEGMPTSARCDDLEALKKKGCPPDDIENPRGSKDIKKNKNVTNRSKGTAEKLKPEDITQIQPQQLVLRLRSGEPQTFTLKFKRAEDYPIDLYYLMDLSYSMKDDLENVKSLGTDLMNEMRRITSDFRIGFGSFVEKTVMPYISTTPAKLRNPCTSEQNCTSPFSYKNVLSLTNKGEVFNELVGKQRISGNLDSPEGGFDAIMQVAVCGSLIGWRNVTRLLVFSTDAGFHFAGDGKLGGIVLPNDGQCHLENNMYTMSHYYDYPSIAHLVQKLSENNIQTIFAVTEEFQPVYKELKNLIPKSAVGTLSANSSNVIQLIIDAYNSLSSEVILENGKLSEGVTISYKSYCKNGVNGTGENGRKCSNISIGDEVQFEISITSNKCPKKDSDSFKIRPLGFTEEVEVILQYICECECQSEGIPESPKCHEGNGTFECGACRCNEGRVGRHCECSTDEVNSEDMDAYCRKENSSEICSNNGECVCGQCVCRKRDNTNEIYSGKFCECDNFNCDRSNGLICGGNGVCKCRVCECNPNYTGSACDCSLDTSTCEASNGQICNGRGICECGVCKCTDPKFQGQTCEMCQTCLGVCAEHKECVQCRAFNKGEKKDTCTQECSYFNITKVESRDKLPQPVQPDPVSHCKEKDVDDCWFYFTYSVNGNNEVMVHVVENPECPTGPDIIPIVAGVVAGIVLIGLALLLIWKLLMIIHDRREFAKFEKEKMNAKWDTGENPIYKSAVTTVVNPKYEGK
- Sequence (P13612 whole entry): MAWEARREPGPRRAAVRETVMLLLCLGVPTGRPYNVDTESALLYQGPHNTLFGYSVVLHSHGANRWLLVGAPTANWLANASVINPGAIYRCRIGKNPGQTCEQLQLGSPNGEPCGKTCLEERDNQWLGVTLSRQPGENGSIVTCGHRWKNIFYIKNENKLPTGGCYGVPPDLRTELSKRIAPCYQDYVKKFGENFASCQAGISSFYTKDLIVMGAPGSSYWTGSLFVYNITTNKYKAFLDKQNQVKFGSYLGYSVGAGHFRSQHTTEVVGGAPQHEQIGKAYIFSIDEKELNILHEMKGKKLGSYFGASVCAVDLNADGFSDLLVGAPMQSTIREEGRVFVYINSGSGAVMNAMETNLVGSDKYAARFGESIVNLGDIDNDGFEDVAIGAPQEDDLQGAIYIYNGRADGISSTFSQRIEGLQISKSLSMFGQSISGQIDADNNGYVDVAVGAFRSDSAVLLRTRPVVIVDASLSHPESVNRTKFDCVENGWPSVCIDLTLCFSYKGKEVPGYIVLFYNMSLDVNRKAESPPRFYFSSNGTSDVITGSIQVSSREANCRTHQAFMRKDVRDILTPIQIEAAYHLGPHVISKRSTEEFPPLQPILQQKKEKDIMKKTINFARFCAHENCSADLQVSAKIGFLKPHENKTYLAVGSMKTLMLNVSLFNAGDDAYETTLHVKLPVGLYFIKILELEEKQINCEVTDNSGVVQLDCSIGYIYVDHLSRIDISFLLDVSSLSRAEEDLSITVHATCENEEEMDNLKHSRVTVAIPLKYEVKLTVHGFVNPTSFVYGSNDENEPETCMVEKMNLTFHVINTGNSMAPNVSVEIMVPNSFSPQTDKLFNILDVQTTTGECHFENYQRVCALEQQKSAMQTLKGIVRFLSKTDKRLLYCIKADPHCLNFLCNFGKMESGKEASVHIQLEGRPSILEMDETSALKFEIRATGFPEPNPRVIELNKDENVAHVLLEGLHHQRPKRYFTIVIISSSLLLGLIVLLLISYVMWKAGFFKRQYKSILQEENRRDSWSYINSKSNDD
- Assay Procedure: Inhibition of Very late antigen 4/vascular cell adhesion molecule 1 interaction in ELISA
- Format: protein-complex assay
Binary call on IC50 with cut-off 1 nM: strictly below means true, and equality or higher means false.

>>> category_label("C[S+]([O-])CCC1(C(=O)N[C@@H](Cc2ccc(NC(=O)c3c(Cl)cccc3Cl)cc2)C(=O)O)CCCC1 (stereo partly specified)")
"true"
>>> category_label("CS(=O)(=O)CCCC1(C(=O)N[C@@H](Cc2ccc(NC(=O)c3c(Cl)cccc3Cl)cc2)C(=O)O)CCCC1")
"false"
>>> category_label("CS(=O)(=O)CCC1(C(=O)N[C@@H](Cc2ccc(NC(=O)c3c(Cl)cccc3Cl)cc2)C(=O)O)CCCC1")
"true"
>>> category_label("CSCCCCC1(C(=O)N[C@@H](Cc2ccc(NC(=O)c3c(Cl)cccc3Cl)cc2)C(=O)O)CCCC1")
"false"
>>> category_label("CS(=O)(=O)CCCCC1(C(=O)N[C@@H](Cc2ccc(NC(=O)c3c(Cl)cccc3Cl)cc2)C(=O)O)CCC1")
"true"
>>> category_label("CS(=O)(=O)CCCCC1(C(=O)N[C@@H](Cc2ccc(NC(=O)c3c(Cl)cccc3Cl)cc2)C(=O)O)CCCC1")
"true"
